test system: SK-MEL-28; test: NCI tumour cell line growth inhibition, 48 h
Active and inactive are the calls of the source. Rule as the data show it: active = GI50 up to about 1.1 µM and inactive = higher.
property label: GI50

compound	system name	property label	measured result
N#C/C(=C1\SC(/N=N/c2ccc(Cl)cc2)C(=O)N1c1ccccc1)c1nc2ccccc2[nH]1 (centres undefined)	SK-MEL-28	GI50	36 µM (inactive)
CN(C)c1ccc(/C=c2\sc3nnc(-c4cccnc4)n3c2=O)cc1	SK-MEL-28	GI50	> 100 µM (inactive)
O=C1NCCS(=O)(=O)N[C@@H](CC2=CC=CCC2)C(=O)N2CCCC12 (some centres undefined)	SK-MEL-28	GI50	> 100 µM (inactive)
COc1ccc2c(c1)CC[C@@H]1C2CC[C@]2(C)C(=C=CP(=O)(O)O)CCC12 (some centres undefined)	SK-MEL-28	GI50	> 100 µM (inactive)
c1ccc2[nH]c(CNc3ccc(C4C[Se]N=N4)cc3)nc2c1 (centres undefined)	SK-MEL-28	GI50	78.9 µM (inactive)
CCOC(=O)N1CCN(Cc2cc(=O)n3cc(C)ccc3n2)CC1	SK-MEL-28	GI50	> 100 µM (inactive)
CC(=O)OCC(=O)OC[C@H](OCc1ccccc1)[C@@H]1[C@H](OC(C)=O)C(=O)N1Cc1ccccc1	SK-MEL-28	GI50	> 100 µM (inactive)
COc1ccc(/C=C/C(=O)c2sc(Nc3ccc([N+](=O)[O-])cc3)nc2C)cc1	SK-MEL-28	GI50	40.2 µM (inactive)
O=C1C=C2CO[C@H]3OC[C@H](O)[C@@H]1[C@@H]23	SK-MEL-28	GI50	33.6 µM (inactive)

----------
tested on: U-251; assay: NCI tumour cell line growth inhibition, 48 h
Activity calls are given as the source filed them. Rule as the data show it: active = GI50 up to about 1.1 µM and inactive = higher.
Outcome codes: active, inactive

compound	category label
O=C(Cn1cc(-c2ccccc2)nn1)NC1CCCCC1	inactive
O=[N+]([O-])c1cccc2nc3ccccc3c(NCCN(CCO)CCO)c12	active
Cc1nc(C(N)=S)sc1/C(CC(=O)C(=O)Nc1cccc2ccc(O)cc12)=N\NC(=O)c1ccncc1	inactive
C#CCN(N=O)C(=O)NCCCC(NC(C)=O)C(=O)NCc1ccccc1 (stereo not given)	inactive
c1ccc2[nH]c(CNc3ccc(C4C[Se]N=N4)cc3)nc2c1 (stereo not given)	inactive
CSc1ccsc1-c1sc(-c2cc(SC)c(-c3sc(-c4cc(SC)c(-c5sccc5SC)s4)cc3SC)s2)cc1SC	inactive
COC(OC)c1cc2c(cc1C(=O)[C@@]13CCC[C@@H]1NC(=O)O3)OCO2	inactive
c1csc(-c2ccc(-c3cccc4nsnc34)s2)c1	inactive
C=C(CO)C(=O)OC1CC(=C)C2CC(O)C(C)C2C2OC(=O)C(=C)C12 (stereo not given)	inactive
OCCCCn1cc(Cn2ncc3c(NCc4ccccc4)ncnc32)nn1	inactive

----------
system: UACC-62; assay: NCI tumour cell line growth inhibition, 48 h
Calls of active or inactive are those of the source. Cut-off read from the data, not from the text of the source: active = GI50 up to about 1.1 µM and inactive = higher.

molecule	GI50
CC1(C2CCC3(C)C(C2)C3Sc2ccccc2)OCCO1 (stereo not given)	19.4 µM (inactive)
COc1cc2c(cc1OC)C1c3ccccc3CCCN1CC2 (stereo not given)	> 100 µM (inactive)
Cn1c(CBr)nc2c1C(=O)c1nc(CBr)[nH]c(=O)c1C2=O	> 100 µM (inactive)
COc1ccc(C2SC(=N)Nc3c2c(C)nn3C(=O)c2ccncc2)cc1OC (stereo not given)	> 10 µM (inactive)
N=C(N)N/N=C/c1cnn(C(=N)N)c1	> 100 µM (inactive)
